# Target Or Test System: GLUT1 (Homo sapiens)
# Construct: endogenous in cells
# Sequence (P11166 whole entry): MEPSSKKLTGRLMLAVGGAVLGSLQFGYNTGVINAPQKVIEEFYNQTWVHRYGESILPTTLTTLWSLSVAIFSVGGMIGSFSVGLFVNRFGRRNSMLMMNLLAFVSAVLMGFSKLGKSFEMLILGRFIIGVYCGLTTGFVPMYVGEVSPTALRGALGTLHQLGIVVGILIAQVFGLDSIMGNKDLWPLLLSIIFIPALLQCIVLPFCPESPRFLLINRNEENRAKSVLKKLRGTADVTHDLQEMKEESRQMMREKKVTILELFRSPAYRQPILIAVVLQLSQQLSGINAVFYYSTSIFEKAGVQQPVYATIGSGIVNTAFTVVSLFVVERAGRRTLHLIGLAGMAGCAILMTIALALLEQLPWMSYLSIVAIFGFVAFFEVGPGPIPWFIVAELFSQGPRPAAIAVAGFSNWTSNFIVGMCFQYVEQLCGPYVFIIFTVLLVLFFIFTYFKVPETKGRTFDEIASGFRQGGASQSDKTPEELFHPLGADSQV
# Measurement Protocol: Indirect measurement of GLUT activity by quantification of intracellular ATP levels: glucose induced ATP increase (GLUT1 inhibition)
# Protocol Conditions: DLD1 cells; 1 mM glucose, 1 uM Rotenone, 15 min; CellTiter-Glo ATP levels; IC50 values standardized to cytochalasin B IC50 values; read-out: IC50 regarding glucose induced ATP increase (GLUT1 inhibition)
Output schema: class label derived from IC50. Mapping: LOW = under 50 nM, MID = from 50 nM up to 200 nM, HIGH = 200 nM and over

Q: Band assignment needed for Cc1c(NC(=O)c2cc(C(F)(F)F)nc3ccc(Br)cc23)cnn1Cc1ccccc1C#N [Example 14] please.
Ans: MID

Q: Band assignment needed for Cc1ccc2nc(C)cc(C(=O)Nc3cnn(Cc4ccc(F)cc4)c3C)c2c1 [Example 1] please.
Ans: LOW

Q: Band assignment needed for Cc1c(NC(=O)c2cc(C(N)=O)nc3ccccc23)cnn1Cc1ccc(F)cc1 [Example 5] please.
Ans: LOW

Q: Band assignment needed for Cc1c(NC(=O)c2cc(C3CC3)nc3ccc(F)cc23)cnn1Cc1ccc(F)cc1 [Example 6] please.
Ans: MID

Q: Band assignment needed for O=C(Nc1cnn(Cc2ccc(F)cc2)c1C(=O)O)c1cc(C(F)(F)F)nc2ccc(Br)cc12 [Example 17] please.
Ans: HIGH

Q: Band assignment needed for Cc1c(NC(=O)c2cc(C(N)=O)nc3ccccc23)cnn1Cc1cccc(F)c1 [Example 27] please.
Ans: MID

Q: Band assignment needed for Cc1c(NC(=O)c2cc(C3CC3)nc3ccc(Br)cc23)cnn1Cc1ccc(C#N)cc1 [Example 23] please.
Ans: LOW

Q: Band assignment needed for Cc1cc(Cn2ncc(NC(=O)c3cc(C(N)=O)nc4ccccc34)c2C)no1 [Example 45] please.
Ans: HIGH

Q: Band assignment needed for COc1cc(C(=O)Nc2cnn(Cc3ccc(F)cc3)c2C)c2ccccc2n1 [Example 3] please.
Ans: MID

Q: Band assignment needed for Cc1cc(Cn2ncc(NC(=O)c3cc(C(F)(F)F)nc4ccc(Br)cc34)c2C)no1 [Example 42] please.
Ans: HIGH

Q: Band assignment needed for Cc1c(NC(=O)c2cc(C(F)(F)F)nc3ccc(Br)cc23)cnn1Cc1ccc(F)cc1 [Example 4] please.
Ans: LOW

Q: Band assignment needed for Cc1c(NC(=O)c2cc(C(N)=O)nc3ccccc23)cnn1Cc1ccc(C#N)cc1 [Example 9] please.
Ans: LOW

Q: Band assignment needed for N#Cc1ccc(Cn2ncc(NC(=O)c3cc(C(F)(F)F)nc4ccc(Br)cc34)c2C(N)=O)cc1 [Example 22] please.
Ans: HIGH

Q: Band assignment needed for COc1cc(C(=O)Nc2cnn(Cc3ccc(C#N)cc3)c2C)c2ccccc2n1 [Example 10] please.
Ans: MID

Q: Band assignment needed for Cc1c(NC(=O)c2cc(C(F)(F)F)nc3ccc(Br)cc23)cnn1Cc1ccn(C)n1 [Example 44] please.
Ans: HIGH

Q: Band assignment needed for Cc1c(NC(=O)c2cc(C(N)=O)nc3ccccc23)cnn1Cc1ccc(F)c(F)c1 [Example 26] please.
Ans: MID

Q: Band assignment needed for CNC(=O)c1c(NC(=O)c2cc(C(F)(F)F)nc3ccc(Br)cc23)cnn1Cc1ccc(C#N)cc1 [Example 21] please.
Ans: HIGH
